# Tested on: MCF7
# testDescription: NCI tumour cell line growth inhibition, 48 h
Calls of active or inactive are those of the source. Cut-off read from the data, not from the text of the source: active = GI50 up to about 1.1 µM and inactive = higher.
Measured GI50, listed per entry for reference.

molecule	result
O=C(O)CCC(/N=C(\C(=N\C(CCC(=O)O)C(=O)O)c1ccccc1)c1ccccc1)C(=O)O (stereo unspecified)	> 100 µM (inactive)

Turning now to a further molecule:
Query: Could you share what GI50 was measured for C[N+]1(c2ccccc2)C=C(c2ccccc2)SC1=S (stereo unspecified) , tested on MCF7?
Result: 41.7 µM (inactive)

* * *

# Tested on: UACC-257
# testDescription: NCI tumour cell line growth inhibition, 48 h
Calls of active or inactive are those of the source. Rule as the data show it: active = GI50 up to about 1.1 µM and inactive = higher.
observedProperty: GI50

compound	targetUnderTest	observedProperty	result
CCOC(=O)C1C(c2ccc(Br)cc2)N(Cc2ccccc2)C(c2ccc(Br)cc2)C(C(=O)OC)S1(=O)=O (stereo not given)	UACC-257	GI50	24.9 µM (inactive)

Query: Could you share what GI50 was measured for `O=[N+]([O-])c1cc(/C=N/NS(=O)(=O)c2ccc(F)cc2)c(O)c([N+](=O)[O-])c1` , tested on UACC-257?
Result: 42.3 µM (inactive)

Query: Could you share what GI50 was measured for `CN(C)CCS/C(=N\c1ccccc1)n1cccc1` , tested on UACC-257?
Result: 42.9 µM (inactive)

Query: Could you share what GI50 was measured for O=C(CN1C(=O)c2ccccc2C1=O)OC1C=CCCC1 (stereo not given) , tested on UACC-257?
Result: > 100 µM (inactive)

Query: Could you share what GI50 was measured for `O[C@H]1[C@H](O)[C@@H](O)[C@@]2(O)CC[C@@H]1N2` , tested on UACC-257?
Result: > 100 µM (inactive)
